# measurement target: Neuronal acetylcholine receptor; alpha3/beta2 (Homo sapiens, UniProt P17787+P32297)
# Sequence (P17787 whole entry): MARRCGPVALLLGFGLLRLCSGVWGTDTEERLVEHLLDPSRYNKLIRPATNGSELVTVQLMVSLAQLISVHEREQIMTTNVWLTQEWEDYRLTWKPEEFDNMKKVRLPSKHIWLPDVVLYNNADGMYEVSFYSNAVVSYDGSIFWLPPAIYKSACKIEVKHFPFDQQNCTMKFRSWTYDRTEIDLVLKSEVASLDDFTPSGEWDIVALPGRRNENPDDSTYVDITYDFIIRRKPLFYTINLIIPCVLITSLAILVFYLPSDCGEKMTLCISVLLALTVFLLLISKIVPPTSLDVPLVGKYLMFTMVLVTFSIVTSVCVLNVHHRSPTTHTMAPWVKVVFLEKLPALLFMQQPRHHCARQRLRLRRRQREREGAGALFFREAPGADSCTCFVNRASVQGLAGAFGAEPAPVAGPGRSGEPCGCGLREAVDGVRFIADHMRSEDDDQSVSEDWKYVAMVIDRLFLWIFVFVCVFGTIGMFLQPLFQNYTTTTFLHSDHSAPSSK
# Sequence (P32297 whole entry): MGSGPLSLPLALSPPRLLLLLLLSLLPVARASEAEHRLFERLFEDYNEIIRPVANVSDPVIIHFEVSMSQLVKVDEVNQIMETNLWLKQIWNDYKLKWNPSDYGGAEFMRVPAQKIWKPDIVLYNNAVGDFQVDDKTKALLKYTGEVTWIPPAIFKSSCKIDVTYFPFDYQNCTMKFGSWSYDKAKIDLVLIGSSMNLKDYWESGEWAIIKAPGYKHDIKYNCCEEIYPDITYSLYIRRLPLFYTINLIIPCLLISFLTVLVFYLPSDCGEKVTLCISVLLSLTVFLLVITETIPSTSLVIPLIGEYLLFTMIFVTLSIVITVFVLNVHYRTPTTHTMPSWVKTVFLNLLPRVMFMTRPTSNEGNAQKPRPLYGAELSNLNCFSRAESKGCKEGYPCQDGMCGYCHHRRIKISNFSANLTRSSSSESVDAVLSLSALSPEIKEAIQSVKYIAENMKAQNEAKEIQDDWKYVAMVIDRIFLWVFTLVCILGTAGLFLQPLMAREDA
# procedure text: Inhibitory concentration against Nicotinic acetylcholine receptor alpha3-beta2
# Format: protein-complex assay
Peptide text beside a SMILES is read from it.
property name: IC50 (nM)
Give your result in nM as a bare value.

Study these solved cases before continuing.
| compound | unit abbrev | experimental value |
| --- | --- | --- |
| CNC1(C)C2CCC(C2)C1(C)C (stereo unspecified) | nM | 280 |
| CC(C)C[C@H](NC(=O)[C@H](C)NC(=O)[C@H](CS)NC(=O)[C@@H]1CCCN1C(=O)[C@@H]1CCCN1C(=O)[C@H](CC(C)C)NC(=O)[C@H](CO)NC(=O)[C@H](CS)NC(=O)[C@H](CS)NC(=O)CN)C(=O)N[C@@H](CO)C(=O)N[C@@H](CC(N)=O)C(=O)N1CCC[C@H]1C(=O)N[C@@H](CC(=O)O)C(=O)N[C@@H](Cc1ccc(O)cc1)C(=O)N[C@@H](CS)C(N)=O (H-GCCSLPPCALSNPDYC-NH2) | nM | 61 |
| COc1cc2c3cc1Oc1cccc(c1O)C[C@@H]1c4c(cc(OC)c(O)c4Oc4ccc(cc4)CC3N(C)CC2)CC[N+]1(C)C (stereo partly specified) | nM | 230 |
| CSCC[C@H](NC(=O)[C@H](CC(N)=O)NC(=O)[C@H](CS)NC(=O)[C@@H]1CCCN1C(=O)[C@H](CCCNC(=N)N)NC(=O)[C@H](CC(=O)O)NC(=O)[C@H](CO)NC(=O)[C@H](CS)NC(=O)[C@H](CS)NC(=O)CN)C(=O)N[C@@H](CC(N)=O)C(=O)N[C@@H](CC(N)=O)C(=O)N1CCC[C@H]1C(=O)N[C@@H](CC(=O)O)C(=O)N[C@@H](Cc1ccc(O)cc1)C(=O)N[C@@H](CS)C(N)=O (H-GCCSDRPCNMNNPDYC-NH2) | nM | 30 |
| C[C@H](NC(=O)[C@H](C)NC(=O)[C@H](CS)NC(=O)[C@H](C)NC(=O)[C@@H]1CCCN1C(=O)[C@H](Cc1c[nH]cn1)NC(=O)[C@H](CO)NC(=O)[C@H](CS)NC(=O)[C@H](CS)NC(=O)CNC(=O)CN)C(=O)N[C@@H](CC(N)=O)C(=O)N[C@@H](CC(N)=O)C(=O)N[C@@H](CCC(N)=O)C(=O)N[C@@H](CC(=O)O)C(=O)N[C@@H](Cc1ccc(O)cc1)C(=O)N[C@@H](CS)C(N)=O | nM | 0.3 |

From here, focus on the item given below.
Request: IC50 for CC(C)C[C@H](NC(=O)[C@H](CO)NC(=O)[C@H](CS)NC(=O)[C@H](CS)NC(=O)CN)C(=O)N1CCC[C@H]1C(=O)N1CCC[C@H]1C(=O)N[C@@H](CS)C(=O)N[C@@H](C)C(=O)N[C@@H](C)C(=O)N[C@@H](CC(N)=O)C(=O)N[C@@H](CC(N)=O)C(=O)N1CCC[C@H]1C(=O)N[C@@H](CC(=O)O)C(=O)N[C@@H](Cc1ccc(O)cc1)C(=O)N[C@@H](CS)C(N)=O (H-GCCSLPPCAANNPDYC-NH2) ?
Result: 9.6

* * *

# Rmax values compiled below
# measurement target: Neuronal acetylcholine receptor; alpha3/beta2 (Homo sapiens, UniProt P17787+P32297)
# procedure text: Maximal response against Nicotinic acetylcholine receptor alpha3-beta2
# Type: protein-complex assay
Give your result in % as a bare value.

Study these solved cases before continuing.
| compound | Rmax [%] |
| --- | --- |
| Clc1ccc(C2=CCC[C@H]3CCC2N3)cn1 | 50 |
| CN1CCC[C@H]1CCSc1ccc(O)cc1 | 9 |

Request: Rmax for C[N+]1(C)CCN(c2ccccc2)CC1 [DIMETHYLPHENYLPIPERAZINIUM] ?
Result: 124

Request: Rmax for CCCC1CCCNC(c2cccnc2)C1 (stereo not given) ?
Result: 5
